# tested target: Rap guanine nucleotide exchange factor 3 (Homo sapiens)
# method: Counterscreen qHTS for antagonist of cAMP-regulated guanine nucleotide exchange factor 3 (EPAC1) (AID 1645888);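 also: fluorescence loss as bound BODIPY-GDP is released from Rap1B; % of control where 0% means no effect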
# run parameters: Rap1B-BODIPY-GDP nucleotide exchange, fluorescence; series mostly up to 154 µM
Records with an inconclusive call do not appear. The source made the active and inactive calls. Calls follow the shape of the dose curve; as a rule, active = well fitted inhibition curve with a large enough effect; inconclusive = small, poorly fitted or top-dose-only effect; inactive = no such curve, though single readings can be large or run the other way.
property: activity change, negative = inhibition

As a guide, the following entries are already answered.
> print(dat)
                                   compound                             tested.target                                property  measured.result
1  O=C(CSc1nc(-c2ccccc2)nc2c1Cc1ccccc1O2)Nc1ccc(C(=O)O)cc1  Rap guanine nucleotide exchange factor 3 (Homo sapiens)  activity change, negative = inhibition         inactive
2  CCC(C(=O)c1ccc2ncccc2c1)c1ccccc1 (stereo not given)  Rap guanine nucleotide exchange factor 3 (Homo sapiens)  activity change, negative = inhibition         inactive
3  CN(c1ccccc1)c1ccc(/C=C(\CCC(=O)O)c2nc3ccccc3s2)cc1[N+](=O)[O-]  Rap guanine nucleotide exchange factor 3 (Homo sapiens)  activity change, negative = inhibition         inactive
4  Cc1ccc(N=Cc2cc(Cc3ccccc3Cl)cc([N+](=O)[O-])c2O)c(O)c1  Rap guanine nucleotide exchange factor 3 (Homo sapiens)  activity change, negative = inhibition         inactive
5  CCC(=C(c1ccc(OC)cc1)c1ccc(OC)cc1)c1cn(CC(O)CN(CCO)CCO)c2ccccc12 (stereo not given)  Rap guanine nucleotide exchange factor 3 (Homo sapiens)  activity change, negative = inhibition         inactive

Here are 5 compounds. What values of activity change, negative = inhibition were reported for them?
1. O=C(NCC(c1ccco1)N1CCCCC1)c1cccc(NS(=O)(=O)c2ccc(Br)cc2)c1 (stereo not given)
2. O=C(Nc1sc2c(c1C(=O)O)CCC2)c1ccccc1F
3. CC(C)(C)C(=O)NC(Nc1cccc2cccnc12)C(Cl)(Cl)Cl (stereo not given)
4. O=C1c2cccc3c(N4CCCCC4)ccc(c23)C(=O)N1c1cccc(O)c1
5. Cc1cccc(NC(=O)c2ccc(-n3cncn3)c([N+](=O)[O-])c2)c1

Response given:
-11.8% [at 30.8 µM] (inactive)
inactive
-6% [at 30.8 µM] (inactive)
inactive
-21.4% [at 30.8 µM] (inactive)

Origin of the recorded values: PubChem BioAssay (NCATS)
